Biological target: GDH1 (Homo sapiens, UniProt P00367)
Sequence (P00367 54-558): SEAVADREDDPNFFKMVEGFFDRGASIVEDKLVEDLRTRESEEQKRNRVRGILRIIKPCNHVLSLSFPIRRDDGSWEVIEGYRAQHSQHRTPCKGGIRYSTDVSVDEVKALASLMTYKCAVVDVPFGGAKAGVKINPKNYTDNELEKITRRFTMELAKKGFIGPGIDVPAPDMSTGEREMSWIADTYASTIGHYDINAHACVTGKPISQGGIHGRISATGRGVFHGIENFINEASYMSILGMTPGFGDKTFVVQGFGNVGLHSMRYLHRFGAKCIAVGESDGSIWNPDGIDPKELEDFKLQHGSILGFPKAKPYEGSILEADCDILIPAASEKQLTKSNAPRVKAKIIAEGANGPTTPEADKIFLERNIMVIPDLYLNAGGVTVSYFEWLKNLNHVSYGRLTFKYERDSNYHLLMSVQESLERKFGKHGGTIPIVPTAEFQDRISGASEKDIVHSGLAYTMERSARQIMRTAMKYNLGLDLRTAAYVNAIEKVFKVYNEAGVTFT
Test: GDH1 enzyme activity assay with purified GDH1
Details: recombinant, purified active GDH1; in vitro GDH activity assay
pKi: −log10 of the molar value.
test readout: pKi

>>> print(df.to_string())
                                   compound  test_readout  reported_measurement
0  O=C1c2ccccc2C(=O)c2c(O)c(O)cc(O)c21 [purpurin, reference compound]           pKi                  5.72

----------
Target: GDH1 (Homo sapiens, UniProt P00367)
test readout: Kd

>>> print(df.to_string())
                                   molecule                        tested_system  test_readout  reported_measurement
0  O=C1c2ccccc2C(=O)c2c(O)c(O)cc(O)c21 [purpurin, reference compound]  GDH1 (Homo sapiens, UniProt P00367)            Kd               11.5 µM
